Molecular target: T1, IL10 receptor (IL10 receptor subunit alpha IL10Ra and beta subunit IL10Rb) on Ramos/STAT3-Luc and … (UniProt Q13651 22-578; Q08334 20-325, limits assumed)
T1 sequence (looked up) 1: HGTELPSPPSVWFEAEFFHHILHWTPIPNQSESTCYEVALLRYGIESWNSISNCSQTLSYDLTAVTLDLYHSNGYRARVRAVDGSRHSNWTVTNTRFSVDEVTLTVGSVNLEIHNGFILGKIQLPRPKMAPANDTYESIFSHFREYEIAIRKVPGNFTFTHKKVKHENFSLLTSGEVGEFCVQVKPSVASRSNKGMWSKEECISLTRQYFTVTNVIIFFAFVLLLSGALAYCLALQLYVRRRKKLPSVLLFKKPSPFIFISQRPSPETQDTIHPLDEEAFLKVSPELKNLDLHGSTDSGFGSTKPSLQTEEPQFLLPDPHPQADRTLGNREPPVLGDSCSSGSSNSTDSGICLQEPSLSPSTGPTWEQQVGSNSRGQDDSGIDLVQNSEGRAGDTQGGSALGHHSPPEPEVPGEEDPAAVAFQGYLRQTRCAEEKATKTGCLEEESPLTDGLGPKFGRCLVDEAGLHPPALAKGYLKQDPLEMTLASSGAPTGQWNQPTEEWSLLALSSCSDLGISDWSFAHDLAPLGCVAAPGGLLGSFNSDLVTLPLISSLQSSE
T1 sequence (looked up) 2: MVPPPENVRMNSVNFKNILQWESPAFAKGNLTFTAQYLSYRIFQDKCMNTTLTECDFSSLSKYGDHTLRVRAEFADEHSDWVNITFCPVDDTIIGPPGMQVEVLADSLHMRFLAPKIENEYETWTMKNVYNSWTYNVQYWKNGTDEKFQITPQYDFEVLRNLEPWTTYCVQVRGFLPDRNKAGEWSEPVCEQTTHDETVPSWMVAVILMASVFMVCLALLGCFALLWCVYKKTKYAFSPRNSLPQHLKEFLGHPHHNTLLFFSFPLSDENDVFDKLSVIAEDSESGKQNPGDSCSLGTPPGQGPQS
Assay: cell-based or functional assay
value_kind: EC50 of luciferase activity, Ramos/Stat3-Luc reporter cells

Name the reported EC50 of luciferase activity, Ramos/Stat3-Luc reporter cells value associated with the binder IL10M5 (Fc-1XG4S-hIL10; Fc is IgG4s) (Fc fusion) ESKYGPPCPPCPAPPVAGPSVFLFPPKPKDTLMISRTPEVTCVVVDVSQEDPEVQFNWYVDGVEVHNAKTKPREEQFNSTYRVVSVLTVLHQDWLNGKEYKCKVSNKGLPSSIEKTISKAKGQPREPQVYTLPPSQEEMTKNQVSLTCLVKGFYPSDIAVEWESNGQPENNYKTTPPVLDSDGSFFLYSRLTVDKSRWQEGNVFSCSVMHEALHNHYTQKSLSLSLGKGGGGSSPGQGTQSENSCTHFPGNLPNMLRDLRDAFSRVKTFFQMKDQLDNLLLKESLLEDFKGYLGCQALSEMIQFYLEEVMPQAENQDPDIKAHVNSLGENLKTLRLRLRRCHRFLPCENKSKAVEQVKNAFNKLQEKGIYKAMSEFDIFINYIEAYMTMKIRN 0.127 nM
